- Test target: hP2X3 (human Purinergic P2X receptors subtype 3), clone B (Homo sapiens)
- Sequence (P56373 whole entry): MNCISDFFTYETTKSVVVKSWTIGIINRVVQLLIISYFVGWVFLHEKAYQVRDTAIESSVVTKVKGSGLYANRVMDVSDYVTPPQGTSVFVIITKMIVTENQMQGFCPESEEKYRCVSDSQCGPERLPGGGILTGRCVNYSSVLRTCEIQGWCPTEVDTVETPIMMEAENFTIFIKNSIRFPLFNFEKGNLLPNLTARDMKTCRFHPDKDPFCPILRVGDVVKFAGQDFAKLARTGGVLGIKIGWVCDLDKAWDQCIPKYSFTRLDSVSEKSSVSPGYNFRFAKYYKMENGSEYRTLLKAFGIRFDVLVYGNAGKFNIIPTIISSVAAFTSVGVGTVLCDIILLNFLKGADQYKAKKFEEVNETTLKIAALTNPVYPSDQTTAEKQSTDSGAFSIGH
- Procedure summary: hP2X3 FLIPR calcium (Fluo-4) antagonist assay, clone B
- Details: Human P2X3 FLIPR Clone B IC50 (nM), RLE cells expressing hP2X3 clone B (NM_002559); agonist 500 nM α,β-methylene-ATP
Readout name: IC50 (nM)

Example results:
- Molecule: "CC(=O)N1CCN(c2nc(NC(C)c3ccc(C(F)(F)F)cc3)c3c(n2)C(=O)N(C(C)C)C3)CC1 (stereo not shown)"
  Test target: "hP2X3 (human Purinergic P2X receptors subtype 3), clone B (Homo sapiens)"
  IC50 / nM: 200
- Molecule: "CC(=O)N1CCN(c2nc(NCc3nc4ccccc4s3)c3c(n2)C(=O)N(C(C)C)C3)CC1"
  Test target: "hP2X3 (human Purinergic P2X receptors subtype 3), clone B (Homo sapiens)"
  IC50 / nM: 2300
- Molecule: "CC(=O)N1CCN(c2nc3c(c(N(Cc4ccccc4)CC4CCCO4)n2)CN(C(C)C)C3=O)CC1 (stereo not shown)"
  Test target: "hP2X3 (human Purinergic P2X receptors subtype 3), clone B (Homo sapiens)"
  IC50 / nM: 4600
- Molecule: "CC(=O)N1CCN(c2nc(N[C@@H](C)c3cnc4ccccc4c3)c3c(n2)C(=O)N(C(C)C)C3)CC1 [Example 234]"
  Test target: "hP2X3 (human Purinergic P2X receptors subtype 3), clone B (Homo sapiens)"
  IC50 / nM: 1100
- Molecule: "CC(=O)N1CCN(c2nc(NCc3cc4ccccc4nc3C)c3c(n2)C(=O)N(C(C)C)C3)CC1"
  Test target: "hP2X3 (human Purinergic P2X receptors subtype 3), clone B (Homo sapiens)"
  IC50 / nM: 68

A: CC(=O)N1CCN(c2nc(NCCc3ccc(C)c(C)c3)c3c(n2)C(=O)N(C(C)C)C3)CC1
B: CC(=O)N1CCN(c2nc(NCc3cn(C4CCCC4)nc3C)c3c(n2)C(=O)N(C(C)C)C3)CC1
Qu. Which item exceeds the other in IC50, A or B ? Mark your selection by writing its label.
Ans. A
(A: 9700 nM, B: 270 nM)

The origin of these recorded values is patent US20090099195A1.
